Counter-ions that a name gives are not always drawn.
Reported melting point values for a set of compounds

Before answering, review these 5 worked examples.
compound="Cc1nc2ccc3c(c2o1)O[C@@H](CN[C@H]1CC[C@@H](c2c[nH]c4ccc(F)cc42)CC1)CO3 [Example 12]" quantity="melting point" recorded_measurement="80 to 82 °C"
compound="Cc1ccc2c3c(ccc2n1)OCC(CNC1CCC(c2cn(C)c4ccc(F)cc24)C1)O3 (single isomer, unassigned) (as salt: fumarate) [Example 5]" quantity="melting point" recorded_measurement="200 to 201 °C"
compound="Cc1ccc2c3c(ccc2n1)OC[C@H](CN[C@H]1CC[C@@H](c2c[nH]c4ccc(F)cc24)C1)O3 (mixture of isomers) (as salt: HCl) (hydrate or solvate) [Example 3]" quantity="melting point" recorded_measurement="234 to 235 °C"
compound="Cc1nc2ccc3c(c2o1)O[C@@H](CN[C@H]1CC[C@@H](c2c[nH]c4ccc(F)cc24)C1)CO3 (mixture of isomers) [Example 11]" quantity="melting point" recorded_measurement="79 to 82 °C"
compound="Cc1ccc2c3c(ccc2n1)OC[C@H](CN(C)[C@@H]1CC[C@H](c2c[nH]c4ccc(F)cc24)C1)O3 (relative stereo) (as salt: fumarate) [Example 13]" quantity="melting point" recorded_measurement="198 to 199 °C (dec.)"

Okay, now this compound:
Look at this compound and give its reported melting point. Cc1nc2ccc3c(c2o1)O[C@@H](CN[C@H]1CC[C@H](c2c[nH]c4ccc(F)cc24)C1)CO3 (mixture of isomers) [Example 10] 79 to 82 °C
